Biological target: BTK (Homo sapiens, UniProt Q06187)
Construct: the BTK open reading frame (ORF) was first shuttled from a pcDNA-DEST40-BTK vector; expressed in transfected cells; host or cells: HEK293A (Invitrogen R70507), lentiviral transduction, blasticidin selection
Sequence (Q06187 whole entry): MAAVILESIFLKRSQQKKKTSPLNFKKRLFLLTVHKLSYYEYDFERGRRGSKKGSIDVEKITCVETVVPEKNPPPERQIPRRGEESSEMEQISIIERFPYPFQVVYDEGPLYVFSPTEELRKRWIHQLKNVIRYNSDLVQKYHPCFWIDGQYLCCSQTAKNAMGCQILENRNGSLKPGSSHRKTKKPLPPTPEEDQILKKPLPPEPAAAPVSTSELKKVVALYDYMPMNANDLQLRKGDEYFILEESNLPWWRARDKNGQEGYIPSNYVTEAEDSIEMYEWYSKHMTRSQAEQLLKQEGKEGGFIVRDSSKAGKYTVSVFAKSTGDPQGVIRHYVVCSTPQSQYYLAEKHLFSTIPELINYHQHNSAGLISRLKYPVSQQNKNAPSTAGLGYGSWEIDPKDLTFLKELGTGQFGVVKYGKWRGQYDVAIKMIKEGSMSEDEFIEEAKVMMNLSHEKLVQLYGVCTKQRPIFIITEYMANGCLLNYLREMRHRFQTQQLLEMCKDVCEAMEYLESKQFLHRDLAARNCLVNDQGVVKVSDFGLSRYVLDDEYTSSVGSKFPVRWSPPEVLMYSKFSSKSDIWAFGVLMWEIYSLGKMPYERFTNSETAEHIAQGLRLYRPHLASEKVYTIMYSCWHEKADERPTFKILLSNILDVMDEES
Assay: BTK-GFP protein abundance flow cytometry assay in HEK293A
Assay type: cell-based
Conditions: % protein remaining at the concentration at which maximum degradation is seen; HEK293A, 24 h
Field: label. Allowed values: 1 (BTK degradation Amax < 40%) or -1 (BTK degradation Amax >= 40%).

[[record]]
compound_string = "Cc1c(NC(=O)c2ccc(C(C)(C)O)cc2F)cc(F)cc1-c1ncnc2[nH]c(-c3ccc(CN4CCN(C(=O)N5CCN(CCC#Cc6ccc(N7CCC(=O)NC7=O)cc6)CC5)CC4)cc3)cc12"
assigned_label = 1

[[record]]
compound_string = "Cc1c(NC(=O)c2ccc(C(C)(C)O)cc2F)cc(F)cc1-c1ncnc2[nH]c(-c3ccc(CNCCCCCCn4cc(-c5cccc(N6CCC(=O)NC6=O)c5)nn4)cc3)cc12"
assigned_label = -1


Please examine the following record next.
(Q) Please indicate whether the reported BTK degradation Amax of "Cc1c(NC(=O)c2ccc(C(C)(C)O)cc2F)cc(F)cc1-c1ncnc2[nH]c(-c3ccc(CN(C)CCCNC(=O)COc4cccc(N5CCC(=O)NC5=O)c4)cc3)cc12" is strictly below 40%.
(A) 1
